# Tested on: LG0703-F498-PDC complex spheroid growth;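 note: luminescence taken as a proxy for viable cell amount; percent of DMSO vehicle control where 100% means growth equal to vehicle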
# Assay Explanation: Anticancer human tumor LG0703-F498-PDC patient-derived lung adenocarcinoma cell line growth inhibition [AhR]
# Details: second compound 1 µM; first compound 0.316 µM; active compounds read low
// reported viability, T/C per item

Worked examples, 5 compounds total:
Compound	viability, T/C
CC1(C)CCC(CN2CCN(c3ccc(C(=O)NS(=O)(=O)c4ccc(NCC5CCOCC5)c([N+](=O)[O-])c4)c(Oc4cnc5[nH]ccc5c4)c3)CC2)=C(c2ccc(Cl)cc2)C1 + Cc1cncc(-c2nc(NCCc3c[nH]c4ccccc34)c3ncn(C(C)C)c3n2)c1	95%
CC1COCCN1c1cc(-c2ccnn2C)c2ccnc(-c3ccn[nH]3)c2n1 (stereo not drawn) + Cc1ccccc1N=Nc1ccc(NC(=O)c2ccnn2C)c(C)c1	50%
COc1cccc2c1C(=O)c1c(O)c3c(c(O)c1C2=O)CC(O)(C(=O)CO)CC3OC1CC(N)C(O)C(C)O1 (stereo not drawn) + CC(CO)NC(=O)c1cc(-c2ccc(Cl)cc2)nn(-c2cnn(C)c2)c1=O	61.6%
Nc1ncn(C2CC(O)C(CO)O2)c(=O)n1 (stereo not drawn) + CC(CO)NC(=O)c1cc(-c2ccc(Cl)cc2)nn(-c2cnn(C)c2)c1=O	71.7%
CC(C)c1c(-c2ccccc2)nc2c(C#N)c[nH]n2c1=O + Cc1ccccc1N=Nc1ccc(NC(=O)c2ccnn2C)c(C)c1	94.7%

Give viability, T/C (LG0703-F498-PDC complex spheroid growth) of the following compound: Nc1ccn(C2OC(CO)C(O)C2(F)F)c(=O)n1 (stereo not drawn) + Cc1cncc(-c2nc(NCCc3c[nH]c4ccccc34)c3ncn(C(C)C)c3n2)c1
32.2%

Give viability, T/C (LG0703-F498-PDC complex spheroid growth) of the following compound: Nc1ccccc1NC(=O)c1ccc(CNC(=O)OCc2cccnc2)cc1 + Cc1cncc(-c2nc(NCCc3c[nH]c4ccccc34)c3ncn(C(C)C)c3n2)c1
62.8%

Give viability, T/C (LG0703-F498-PDC complex spheroid growth) of the following compound: O=C(C=Cc1cccc(S(=O)(=O)Nc2ccccc2)c1)NO + Cc1ccccc1N=Nc1ccc(NC(=O)c2ccnn2C)c(C)c1
83.9%

Give viability, T/C (LG0703-F498-PDC complex spheroid growth) of the following compound: CC1COCCN1c1cc(C2(S(C)(=N)=O)CC2)nc(-c2ccnc3[nH]ccc23)n1 (stereo not drawn) + Cc1cncc(-c2nc(NCCc3c[nH]c4ccccc34)c3ncn(C(C)C)c3n2)c1
101%

Give viability, T/C (LG0703-F498-PDC complex spheroid growth) of the following compound: CC1COCCN1c1cc(-c2ccnn2C)c2ccnc(-c3ccn[nH]3)c2n1 (stereo not drawn) + CC(CO)NC(=O)c1cc(-c2ccc(Cl)cc2)nn(-c2cnn(C)c2)c1=O
58.1%
